The reader will find reported IC50 values listed item by item below.
# testTarget: Bcl-xL/BH3-interacting domain death agonist (Homo sapiens, UniProt Q07817)
# Sequence (Q07817 whole entry, one chain of several, the tested form may be a part): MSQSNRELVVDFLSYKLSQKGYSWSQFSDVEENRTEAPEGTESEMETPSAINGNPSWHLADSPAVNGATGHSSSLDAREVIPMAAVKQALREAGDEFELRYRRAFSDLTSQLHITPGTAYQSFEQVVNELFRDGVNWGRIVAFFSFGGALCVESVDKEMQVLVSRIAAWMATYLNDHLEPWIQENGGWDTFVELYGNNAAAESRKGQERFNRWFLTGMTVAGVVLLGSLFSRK
# testProtocol: Inhibition of Bcl-xL/Bid (unknown origin) by fluorescence polarization assay
# Type: protein assay

| smilesCode | IC50 [nM] |
| --- | --- |
| Cc1cc2c(C(C)C)c(O)c(O)c(C=O)c2c(O)c1-c1c(C)cc2c(C(C)C)c(O)c(O)c(C=O)c2c1O | 3030 |
| CC1=C(C2=C(C)C(=O)c3c(cc(O)c(O)c3C(C)C)C2=O)C(=O)c2cc(O)c(O)c(C(C)C)c2C1=O | 660 |

###

# testTarget: Induced myeloid leukemia cell differentiation protein Mcl-1/Bcl-2-like protein 11 (Homo sapiens)
# Sequence (Q07820 whole entry): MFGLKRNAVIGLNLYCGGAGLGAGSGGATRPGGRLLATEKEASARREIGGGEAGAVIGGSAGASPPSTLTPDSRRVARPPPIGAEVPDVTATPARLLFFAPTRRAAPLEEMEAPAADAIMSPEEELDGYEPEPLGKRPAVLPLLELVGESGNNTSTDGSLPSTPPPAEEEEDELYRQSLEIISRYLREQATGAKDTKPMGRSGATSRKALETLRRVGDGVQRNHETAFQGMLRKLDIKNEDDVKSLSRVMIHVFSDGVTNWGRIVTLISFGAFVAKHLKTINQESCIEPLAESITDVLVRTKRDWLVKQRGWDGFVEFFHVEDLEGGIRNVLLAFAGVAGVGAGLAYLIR
# Sequence (O43521 whole entry, further chain): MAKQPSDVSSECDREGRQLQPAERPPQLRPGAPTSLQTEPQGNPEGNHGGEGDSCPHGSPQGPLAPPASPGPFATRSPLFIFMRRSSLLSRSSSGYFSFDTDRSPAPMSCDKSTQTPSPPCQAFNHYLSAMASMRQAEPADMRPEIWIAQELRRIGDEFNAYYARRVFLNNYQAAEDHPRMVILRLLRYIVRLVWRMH
# testProtocol: Inhibition of Mcl-1/Bim (unknown origin) by ELISA method
# Format: protein assay

| compound | scaleUnit | IC50 |
| --- | --- | --- |
| N#CC1=C(NCCC(=O)CCCCC(=O)NCCCCCNc2cccc3c2C(=O)N(C2CCC(=O)NC2=O)C3=O)c2ccc(Sc3ccc(Br)cc3)c3cccc(c23)C1=O (stereo unspecified) | nM | 780 |
| COC(=O)c1ccc(C(=O)c2c(Cl)c(Cl)c3n2-c2c([nH]c(Cl)c2Cl)C(=O)c2ccc(C(=O)OC)cc2O3)c(O)c1 | nM | 4300 |
| O=C(COc1ccc2ccccc2c1)NCCN1C(=O)c2cccc3c(Sc4ccc(Br)cc4)ccc(c23)C1=O | nM | 510 |
| O=C1CCC(N2C(=O)c3cccc4c(Sc5ccc(Br)cc5)ccc(c34)C2=O)C(=O)N1 (stereo unspecified) | nM | 150 |
| N#CC1=C(NCCC(=O)CCCCC(=O)NCCOCCOCCNc2cccc3c2C(=O)N(C2CCC(=O)NC2=O)C3=O)c2ccc(Sc3ccc(Br)cc3)c3cccc(c23)C1=O (stereo unspecified) | nM | 11800 |
| O=C1c2ccc(OS(=O)(=O)C(F)(F)F)cc2Oc2c(Cl)c(Cl)c(C(=O)c3ccc(OS(=O)(=O)C(F)(F)F)cc3O)n2-c2c1[nH]c(Cl)c2Cl | nM | 1400 |

###

# testTarget: BCL2/BID (Homo sapiens, UniProt P10415)
# Sequence (P10415 whole entry): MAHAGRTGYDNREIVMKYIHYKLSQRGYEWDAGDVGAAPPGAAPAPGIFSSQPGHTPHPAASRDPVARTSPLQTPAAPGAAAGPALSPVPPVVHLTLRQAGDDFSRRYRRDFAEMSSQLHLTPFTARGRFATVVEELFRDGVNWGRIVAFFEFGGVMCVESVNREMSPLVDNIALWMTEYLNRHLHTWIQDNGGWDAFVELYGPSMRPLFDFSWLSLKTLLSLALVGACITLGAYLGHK
# Sequence (P55957 whole entry, further chain): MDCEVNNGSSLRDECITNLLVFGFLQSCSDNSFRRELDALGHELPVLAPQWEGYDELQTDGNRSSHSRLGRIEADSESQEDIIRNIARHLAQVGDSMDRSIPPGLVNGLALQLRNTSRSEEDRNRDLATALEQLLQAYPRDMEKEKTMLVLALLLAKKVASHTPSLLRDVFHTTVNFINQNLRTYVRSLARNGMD
reportedProperty: IC50 (µM)

| molecule | reportedProperty | scaleUnit | quantitativeResult |
| --- | --- | --- | --- |
| O=C(O[C@@H]1Cc2c(O)cc(O)cc2O[C@@H]1c1cc(O)c(O)c(O)c1)c1cc(O)c(O)c(O)c1 [EPIGALOCATECHIN GALLATE] | IC50 | µM | 0.45 |

###

# testTarget: Bcl-xL/Bcl-2-like protein 11 (Homo sapiens, UniProt Q07817)
# Sequence (Q07817 whole entry, one chain of several): as the sequence (Q07817 whole entry, one chain of several, the tested form may be a part) above
# testProtocol: Inhibition of Bcl-xL/Bim (unknown origin) by ELISA method
# Assay type: protein assay

| smilesCode | IC50 |
| --- | --- |
| COC(=O)c1ccc(C(=O)c2c(Cl)c(Cl)c3n2-c2c([nH]c(Cl)c2Cl)C(=O)c2ccc(C(=O)OC)cc2O3)c(O)c1 | 3400 nM |
| O=C1c2ccc(OS(=O)(=O)C(F)(F)F)cc2Oc2c(Cl)c(Cl)c(C(=O)c3ccc(OS(=O)(=O)C(F)(F)F)cc3O)n2-c2c1[nH]c(Cl)c2Cl | 2300 nM |

###

# testTarget: BCL2A1/BID (Homo sapiens, UniProt Q16548)
# Sequence (Q16548 whole entry): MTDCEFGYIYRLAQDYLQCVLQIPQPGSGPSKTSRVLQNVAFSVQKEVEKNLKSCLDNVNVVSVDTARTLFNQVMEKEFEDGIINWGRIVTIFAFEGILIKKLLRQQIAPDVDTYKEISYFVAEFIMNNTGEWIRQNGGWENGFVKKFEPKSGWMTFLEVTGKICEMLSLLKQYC
# Sequence (P55957 whole entry, further chain): as the sequence (P55957 whole entry, further chain) above
# testProtocol: Binding affinity to Bfl-1/Bid (unknown origin) by fluorescence polarization assay
# Assay type: protein assay
pKi: −log10 of the molar value.

| smilesCode | pKi |
| --- | --- |
| O=C(O)CSc1cc(NS(=O)(=O)c2cccc(Br)c2)c2ccccc2c1O | 5.27 |

The values you see were collected from ChEMBL document CHEMBL5113375.
